Source: patent US6358885B1

Each entry below carries its reported Plant response rating, Cheatgrass.
System: cheatgrass
Experiment: Test B preemergence/postemergence greenhouse plant response rating 0 to 10
Format: in vivo, Bromus secalinus
Details: PREEMERGENCE, Rate 50 g/ha; 0 to 10 scale
Please state the value as a number alone, without comment.

INSERT INTO measurements (molecule, test_result) VALUES
  ('O=C1COc2cc(F)c(-c3nn4c(c3Cl)CCCC4)cc2N1', 3);

Record CC(C)(C)C(=O)COc1cc(-c2nn3c(c2Cl)CCCC3)c(Cl)cc1Cl has cheatgrass Plant response rating, Cheatgrass equal to 3

Record C=CCOC(=O)COc1cc(-c2nn3c(c2Cl)CCCC3)c(F)cc1Cl has cheatgrass Plant response rating, Cheatgrass equal to 0

Record Clc1ccc(-c2nc3n(c2Br)CCCC3)c(Cl)c1 has cheatgrass Plant response rating, Cheatgrass equal to 0

Record COCN1C(=O)COc2cc(F)c(-c3nn4c(c3Br)CCCC4)cc21 has cheatgrass Plant response rating, Cheatgrass equal to 6

Record C=C(Cl)COc1cc(-c2nn3c(c2Cl)CCCC3)c(F)cc1Cl has cheatgrass Plant response rating, Cheatgrass equal to 0

###

Tested on: speedwell
Test: Test C preemergence/postemergence greenhouse plant response rating 0 to 100
Type: in vivo, Veronica persica
Details: Rate 31 g/ha; POSTEMERGENCE
Each entry below carries its reported Plant response rating (0 to 100), Speedwell.
Please state the value as a number alone, without comment.

Reference set, count: 3
INSERT INTO measurements (molecule, test_result) VALUES
  ('Fc1cc(Cl)ccc1-c1nn2c(c1Br)CCCC2 [Compound 52]', 100),
  ('CC(C)OC(=O)COc1cc(-c2nn3c(c2Cl)CCCC3)c(F)cc1Cl [Compound 39]', 90),
  ('CCOCOc1cc(-c2nn3c(c2Cl)CCCC3)c(F)cc1Cl [Compound 59]', 100);

We next turn to a different molecule, shown below.
The molecule listed as CCOC(=O)COc1cc(-c2nn3c(c2Cl)CCCC3)c(F)cc1Cl [Compound 42] shows Plant response rating (0 to 100), Speedwell equal to 100

###

Tested on: wild buckwheat
Test: Test B preemergence/postemergence greenhouse plant response rating 0 to 10
Assay type: in vivo, Polygonum convolvulus
Details: PREEMERGENCE, Rate 50 g/ha; 0 to 10 scale
Each entry below carries its reported Plant response rating, Wild buckwheat.
Please state the value as a number alone, without comment.

Reference set, count: 6
INSERT INTO measurements (molecule, property, test_result) VALUES
  ('COCOc1cc(-c2nn3c(c2Cl)CCCC3)c(F)cc1Cl', 'Plant response rating, Wild buckwheat', 9),
  ('C#CCN1C(=O)COc2cc(F)c(-c3nn4c(c3Br)CCCC4)cc21', 'Plant response rating, Wild buckwheat', 9),
  ('C#CCOC(=O)COc1cc(-c2nn3c(c2Cl)CCCC3)c(F)cc1Cl', 'Plant response rating, Wild buckwheat', 0),
  ('Fc1cc(Cl)c(OC2CCCC2)cc1-c1nn2c(c1Cl)CCCC2', 'Plant response rating, Wild buckwheat', 3),
  ('CC(C)OC(=O)c1cc(-c2nn3c(c2Cl)CCCC3)c(F)cc1Cl', 'Plant response rating, Wild buckwheat', 9),
  ('CCOC(=O)c1cc(-c2nn3c(c2Cl)CCCC3)c(F)cc1Cl', 'Plant response rating, Wild buckwheat', 9);

We next turn to a different molecule, shown below.
The molecule listed as CC(C#N)Oc1cc(-c2nn3c(c2Cl)CCCC3)c(F)cc1Cl (stereo not shown) shows Plant response rating, Wild buckwheat equal to 7
